- testedSystem: TLK1 (human) (UniProt Q9UKI8)
- Sequence (Q9UKI8 whole entry, looked up): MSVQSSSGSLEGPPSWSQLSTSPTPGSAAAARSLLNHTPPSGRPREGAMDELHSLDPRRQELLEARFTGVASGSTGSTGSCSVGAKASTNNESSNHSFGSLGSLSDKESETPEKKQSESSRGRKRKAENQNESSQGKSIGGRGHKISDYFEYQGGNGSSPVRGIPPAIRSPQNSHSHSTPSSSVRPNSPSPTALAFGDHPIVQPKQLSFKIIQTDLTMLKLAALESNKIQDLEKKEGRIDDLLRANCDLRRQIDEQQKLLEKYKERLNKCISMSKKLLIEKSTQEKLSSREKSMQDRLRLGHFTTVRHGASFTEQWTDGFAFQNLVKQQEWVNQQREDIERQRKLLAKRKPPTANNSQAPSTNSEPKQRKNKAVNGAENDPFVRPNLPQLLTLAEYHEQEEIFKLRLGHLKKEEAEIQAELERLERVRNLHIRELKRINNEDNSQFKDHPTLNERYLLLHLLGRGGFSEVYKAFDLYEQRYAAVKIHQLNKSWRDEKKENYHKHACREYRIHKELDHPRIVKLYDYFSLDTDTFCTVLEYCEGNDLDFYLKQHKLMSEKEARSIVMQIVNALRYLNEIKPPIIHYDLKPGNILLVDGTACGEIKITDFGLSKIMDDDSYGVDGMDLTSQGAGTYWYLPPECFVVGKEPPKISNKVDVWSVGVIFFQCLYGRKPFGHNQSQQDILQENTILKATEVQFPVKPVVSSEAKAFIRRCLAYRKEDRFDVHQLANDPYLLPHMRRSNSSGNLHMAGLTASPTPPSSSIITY
- procedureText: KINOMEscan competition binding
- conditionNotes: compound 10.0 µM
metricName: kinase still bound, per cent of control (%)
Your answer should be a plain number; it is taken to be in %.

Known results for compounds:
NS(=O)(=O)c1ccc(-c2ccc(/C=C3\SC(=S)N(CC(=O)O)C3=O)o2)cc1    22
O=C1NC(=O)/C(=C/c2c[nH]c(=O)c(-c3ccc(N4CCNCC4)nc3)c2)S1    66
N=C1NC(=O)/C(=C/c2ccc(-c3cncc4ccccc34)o2)S1    28
CN1C(=O)[C@H]2CCC[C@H]2N(C2CCCC2)c2nc(Nc3ccc(C(N)=O)cc3)ncc21    8.6
N=C1NC(=O)/C(=C/c2ccc(-c3ccc4c(C(=O)Nc5ccc(N6CCNCC6)cc5)cccc4c3)o2)S1    12

Look up kinase still bound, per cent of control: CS(=O)(=O)Nc1ccc(-c2cncc(/C=C3\SC(=N)NC3=O)c2)cc1
26

Look up kinase still bound, per cent of control: N=C1NC(=O)/C(=C/c2ccc(-c3csc4ccccc34)o2)S1
11

Look up kinase still bound, per cent of control: COc1cc(N2CCN(C)CC2)ccc1Nc1ncc2c(n1)Nc1ccccc1NC2=O
70

---

- testedSystem: WEE2 (human)
- procedureText: KINOMEscan competition binding
- conditionNotes: compound 10.0 µM
metricName: kinase still bound, per cent of control
Remember to put the unit after the number in your answer.

Known results for compounds:
COc1cc(N2CCN(C)CC2)ccc1Nc1ncc2c(n1)Nc1ccccc1NC2=O    93%
CN1C(=O)c2ccccc2N(C)c2nc(NS(=O)(=O)c3ccc(N)cc3)ncc21    100%
COc1cc(N2CCC(O)CC2)ccc1Nc1ncc2c(n1)N1CCc3cccc(c31)C(=O)N2C    87%
CN1CCN(c2ccc(C(=O)Nc3ncc4c(n3)N(C)c3ccccc3C(=O)N4C)cc2)CC1    100%

Look up kinase still bound, per cent of control: O=C1NC(=O)/C(=C/c2c[nH]c(=O)c(-c3ccc(N4CCNCC4)nc3)c2)S1
100%

Look up kinase still bound, per cent of control: CN1C(=O)c2ccccc2N(C)c2nc(Nc3ccc(N4CCC(O)CC4)cc3)ncc21
70%

---

- Tested on: FLT3 (human), P36888 [K663Q]
- procedureText: KINOMEscan competition binding
- conditionNotes: compound 10.0 µM
metricName: kinase still bound, per cent of control (%)
Your answer should be a plain number; it is taken to be in %.

Known results for compounds:
CCN1C(=O)CCN(C2CCCC2)c2nc(Nc3ccc(N4CCC(O)CC4)cn3)ncc21    27
O=C1NC(=S)S/C1=C\c1ccc(-c2cncc3ccccc23)o1    14

Now, please, on to the next compound.
Under FLT3 (human), P36888 [K663Q]: kinase still bound, per cent of control value of CN1C(=O)c2ccccc2N(C)c2nc(Nc3ccc(N4CCC(O)CC4)cn3)ncc21 ?
12

---

Parameter kinase still bound, per cent of control: see the listing below.
- testedSystem: PHKG2 (human) (UniProt P15735)
- Sequence (P15735 whole entry, looked up): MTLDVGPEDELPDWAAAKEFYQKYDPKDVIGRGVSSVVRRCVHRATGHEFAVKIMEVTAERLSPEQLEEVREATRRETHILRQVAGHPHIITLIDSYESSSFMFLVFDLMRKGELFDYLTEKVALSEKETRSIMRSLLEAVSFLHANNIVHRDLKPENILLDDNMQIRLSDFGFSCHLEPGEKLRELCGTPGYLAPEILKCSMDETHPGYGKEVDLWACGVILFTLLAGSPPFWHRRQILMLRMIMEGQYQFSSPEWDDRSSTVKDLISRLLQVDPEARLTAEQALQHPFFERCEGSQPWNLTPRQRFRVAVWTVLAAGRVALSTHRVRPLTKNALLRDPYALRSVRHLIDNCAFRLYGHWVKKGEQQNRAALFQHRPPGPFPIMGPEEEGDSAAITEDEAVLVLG
- procedureText: KINOMEscan competition binding
- conditionNotes: compound 10.0 µM
Your answer should be a plain number; it is taken to be in %.

Look up kinase still bound, per cent of control: N=C1NC(=O)/C(=C/c2ccc(-c3ccc(F)cc3O)o2)S1
15

Look up kinase still bound, per cent of control: Nc1cccc(-c2cc(/C=C3\SC(=O)NC3=O)c[nH]c2=O)c1
11

Look up kinase still bound, per cent of control: COc1cc(N2CCN(C)CC2)ccc1Nc1ncc2c(n1)N(C)c1sccc1C(=O)N2C
46

Look up kinase still bound, per cent of control: COc1cc(N2CCN(C)CC2)ccc1Nc1ncc2c(n1)N(C)c1ccccc1C(=O)N2C
29

Look up kinase still bound, per cent of control: O=C1NC(=S)S/C1=C\c1ccc(-c2cncc3ccccc23)o1
8.1

Look up kinase still bound, per cent of control: COc1cc(N2CCC(O)CC2)ccc1Nc1ncc2c(n1)N1CCc3cccc(c31)C(=O)N2C
68

Look up kinase still bound, per cent of control: N=C1NC(=O)/C(=C/c2ccc(-c3ccccc3O)o2)S1
16
